Origin of measurements: ChEMBL document CHEMBL1275434

test system: Staphylococcus aureus; assay: Antimicrobial activity against Staphylococcus aureus CB814 harboring fluoroquinolone-resistant gyrA S84L and parC S80F mutant genes by broth microdilution method; assay type: functional
Quantity kind: MIC (µg/mL)

Molecule	System under test	Endpoint result
C[C@H]1COc2c(N3CCN(C)CC3)c(F)cc3c(=O)c(C(=O)O)cn1c23.C[C@H]1COc2c(N3CCN(C)CC3)c(F)cc3c(=O)c(C(=O)O)cn1c23.O [LEVOFLOXACIN]	Staphylococcus aureus	8
Cc1c(N2CC[C@@H](N)C2)c(F)cn2c(=O)c(C(=O)O)cc(C3CC3)c12	Staphylococcus aureus	0.5
CO[C@H]1/C=C/O[C@@]2(C)Oc3c(C)c(O)c4c(O)c(c(/C=N/N5CCC(N(C)C6([C@@H]7CCN(c8c(F)cn9c(=O)c(C(=O)O)cc(C%10CC%10)c9c8C)C7)CC6)CC5)c(O)c4c3C2=O)NC(=O)/C(C)=C\C=C\[C@H](C)[C@H](O)[C@@H](C)[C@@H](O)[C@@H](C)[C@H](OC(C)=O)[C@@H]1C	Staphylococcus aureus	0.015
COc1c(N2CCNC(C)C2)c(F)cc2c(=O)c(C(=O)O)cn(C3CC3)c12 (stereo not given) [GATIFLOXACIN]	Staphylococcus aureus	8
CO[C@H]1/C=C/O[C@@]2(C)Oc3c(C)c(O)c4c(O)c(c(/C=N/N5CCN(C)CC5)c(O)c4c3C2=O)NC(=O)/C(C)=C\C=C\[C@H](C)[C@H](O)[C@@H](C)[C@@H](O)[C@@H](C)[C@H](OC(C)=O)[C@@H]1C [RIFAMPIN]	Staphylococcus aureus	0.008

* * *

tested on: Staphylococcus aureus; assay: Activity at Staphylococcus aureus DNA topoisomerase 4 subunit ParC S80F mutant

Compound	System under test	CC50 [µM]
Cc1c(N2CC[C@@H](N)C2)c(F)cn2c(=O)c(C(=O)O)cc(C3CC3)c12	Staphylococcus aureus	1.1
O=C(O)c1cn(C2CC2)c2cc(N3CCNCC3)c(F)cc2c1=O	Staphylococcus aureus	31
COc1c(N2CCNC(C)C2)c(F)cc2c(=O)c(C(=O)O)cn(C3CC3)c12 (centres undefined)	Staphylococcus aureus	13
CO[C@H]1/C=C/O[C@@]2(C)Oc3c(C)c(O)c4c(O)c(c(/C=N/N5CCC(N(C)C6([C@@H]7CCN(c8c(F)cn9c(=O)c(C(=O)O)cc(C%10CC%10)c9c8C)C7)CC6)CC5)c(O)c4c3C2=O)NC(=O)/C(C)=C\C=C\[C@H](C)[C@H](O)[C@@H](C)[C@@H](O)[C@@H](C)[C@H](OC(C)=O)[C@@H]1C	Staphylococcus aureus	2.7
